Reference source: patent US20160340421A1

Field: pKd. Provide a value for each of the binders that follow.
Target: T1, Human GDF8 homodimer (mature human Growth and Differentiation Factor-8) (human, UniProt O14793 267-375)
T1 construct: also called hGDF8; myostatin
T1 sequence: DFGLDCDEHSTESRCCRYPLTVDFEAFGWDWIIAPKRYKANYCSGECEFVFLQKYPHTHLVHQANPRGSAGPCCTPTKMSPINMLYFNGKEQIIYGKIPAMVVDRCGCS
Experiment: SPR, antibody captured, 25 nM antigen
Protocol: Equilibrium dissociation constants (KD values) for antigen binding to selected antibodies were determined by surface kinetics using a real-time biosensor surface plasmon resonance assay (BIACORE™ 2000). […] Human GDF8 homodimer, hGDF11 homodimer, or hGDF5 homodimer at 25 nM was injected over the captured antibody surfaces, and antigen-antibody binding and dissociation were monitored in real time at room temperature. […]
Give bare numbers, as −log10 of the molar value.

INSERT INTO measurements (binder, recorded_endpoint, reading) VALUES
  ('9B4-3 (antibody, V domains shown) VH: EVQLLESGGGLVQPGESLRLSCAASGFTFSSYAMNWVRQAPGKGLEWVSTISGSGGYIYYADSVKGRFTISRDNSKNTLYLQMNSLRAEDTAVYFCAKDSRYNWNYGNFDYWGQGTLVTVSS VL: EIVMTQSPATLSVSPGERATLSCRASQNVSSNLAWNKQKPGQAPRLLIYATSTRATGVPARFSASGSGTDFALTINSLQSEDFAVYYCQQYNNWPLTFGGGTKVEIK', 'pKd', 8.93),
  ('1H4-5 (antibody, V domains shown) VH: QVQLVESGGDVVQPGRSLRLSCTASGFTFSSYGMHWVRQAPGRGLEWVAVISFDGKNKYYADSVKGRFTVSRDNSKNTLFLQMNSLRAEDTALYYCAKRIAATGYYYFYGLDVWGQGTTVTVSS VL: EIMMTQSPATLSVSPGERGTLSCRASQSVSSNLAWYQQKPGQAPRLLIYGASTRASGIPARFSGSGSGTEFTLTVSSLQSEDFAVYYCQQYNNWPLTFGGGTKVEIK', 'pKd', 9.02),
  ('4B9 (antibody, V domains shown) VH: EVQLLESGGGLVQPGGSLRLSCAASGFTSITYAMSWVRQAPGKGLEWVSAISVSGTNTYYADSVKGRFTISRDKSKNMLYLQMNSLRAEDTAVYYCAKDLLHNWKYGTFDIWGQGTMVTVSS VL: EIVMTQSPATLSVSPGERATLSCRASQSVDSNLVWYQQKPGQVPRLLIYGASTRATGIPARFSGSGSGTEFTLTISSLQSEDFAVYYCQQYNKWPLTFGGGTKVEIK', 'pKd', 9.26),
  ('22-D3 (antibody, V domains shown) VH: QVQLVQSGGGLVKPGGSLRLSCAASGFTFSSYSMNWVRQAPGKGLEWVSSISSSSSYIYYADSVKGRFTISRDNAKNSLYLQMNSLRAEDTAVYYCARDRGYTFGVDYWGQGTTVTVSS VL: AIQMTQSPSSLSASVGDRVTITCRASQGIRNDLGWYQQKPGKAPKRLIYAASSLQSGVPSRFSGSGSGTEFTLTISSLQPEDFATYYCLQHNSYPYTFGQGTKVEIKR', 'pKd', 8.91),
  ('8D12-1 (antibody, V domains shown, probably the same antibody as 8D12) VH: QVQLVESGGGVVQPGRSLRLSCAASGFTFSRYGIHWVRQAPGKGLEWVAVISYDGSDEYYVDSVKGRFSISRDNSKNTLYLQMNSLRPADSAVYYCVKGDLELGFDYWGQGTLVTVSS VL: DIVMTQAAPSIPVIPGESVSMSCRSSKSLLYSNGHTYVYWFVQRPGQSPQLLIYRMSNLASGVPDRFSGSGSGTAFTLRISRVEAEDVGVYYCMQNLEFPLTFGAGTKLELK', 'pKd', 9.18);

// next item, pKd requested
Exam item: Which measured pKd value corresponds to 20B12 (antibody, V domains shown) VH: EVQLLESGGGLVQPGGSLRLSCAGSGITFSSYAMSWVRQAPGKGLEWVSAISGNGGTTNYADSVKGRFTISRDNSKNTLYLQMNSLRAEDTAVYYCAKERILTSSWTRYGIMDVWGQGTTVTVSS VL: EIVMTQSPATLSMSPGERATLSCRASQSVSSNLAWYQQKPGQAPRLLIYGASTRATGIPARFSGSGSGTEFTLTISSLQSEDFAVYYCQQYNNWPLTFGGGTKLEIK ?
Marked response: 9.07
